Assayed System: T1, human CCR8 (human, UniProt P51685 1-355)
T1 construct: Native CCR8 on human PBMC (CCR8+ CD3+ or CCR8+ CD4+ lymphocytes); also called chemokine (C-C motif) receptor 8
T1 sequence (P51685 whole entry): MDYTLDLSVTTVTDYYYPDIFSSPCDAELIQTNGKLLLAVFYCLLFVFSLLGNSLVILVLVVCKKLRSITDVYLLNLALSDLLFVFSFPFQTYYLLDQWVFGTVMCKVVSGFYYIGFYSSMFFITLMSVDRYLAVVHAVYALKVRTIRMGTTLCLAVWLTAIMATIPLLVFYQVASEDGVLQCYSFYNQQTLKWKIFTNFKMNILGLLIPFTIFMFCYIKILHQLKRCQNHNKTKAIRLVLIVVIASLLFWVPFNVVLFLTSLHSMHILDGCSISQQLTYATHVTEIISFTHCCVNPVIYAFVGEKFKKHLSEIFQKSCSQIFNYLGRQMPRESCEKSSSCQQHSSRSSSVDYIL
Measurement Description: flow blocking, PBMC CCR8+CD3+; competitor PE-AB5
Quantity Measured: MFI
// response body must contain only the number

Below, each entry is followed by its recorded MFI result.
AB6 (antibody, V domains shown, Hybridoma monoclonal; Same VH/VL entries as AB5; also called antibody 6; clone 6) VH: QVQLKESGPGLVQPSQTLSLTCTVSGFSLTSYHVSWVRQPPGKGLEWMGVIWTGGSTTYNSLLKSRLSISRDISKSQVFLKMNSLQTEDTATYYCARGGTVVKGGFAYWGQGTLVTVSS VL: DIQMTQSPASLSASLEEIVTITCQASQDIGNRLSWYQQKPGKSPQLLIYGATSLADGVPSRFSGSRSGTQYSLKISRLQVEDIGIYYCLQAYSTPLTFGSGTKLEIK    979
AB13 (antibody, V domains shown, Hybridoma monoclonal; also called antibody 13; clone 13) VH: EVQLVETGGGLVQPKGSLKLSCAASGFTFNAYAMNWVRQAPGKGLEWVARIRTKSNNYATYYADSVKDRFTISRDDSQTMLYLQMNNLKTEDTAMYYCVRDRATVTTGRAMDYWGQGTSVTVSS VL: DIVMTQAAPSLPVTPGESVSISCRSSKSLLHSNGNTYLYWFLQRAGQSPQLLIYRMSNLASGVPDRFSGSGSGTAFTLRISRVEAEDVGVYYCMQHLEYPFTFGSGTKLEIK    1130
AB7 (antibody, V domains shown, Hybridoma monoclonal; also called antibody 7; clone 7) VH: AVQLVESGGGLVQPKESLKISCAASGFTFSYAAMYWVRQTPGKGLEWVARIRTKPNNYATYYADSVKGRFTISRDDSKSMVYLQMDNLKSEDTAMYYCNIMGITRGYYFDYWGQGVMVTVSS VL: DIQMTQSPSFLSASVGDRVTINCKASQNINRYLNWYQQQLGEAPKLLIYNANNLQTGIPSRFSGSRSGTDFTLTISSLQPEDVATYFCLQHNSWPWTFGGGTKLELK    1050
AB8 (antibody, V domains shown, Hybridoma monoclonal; also called antibody 8; clone 8) VH: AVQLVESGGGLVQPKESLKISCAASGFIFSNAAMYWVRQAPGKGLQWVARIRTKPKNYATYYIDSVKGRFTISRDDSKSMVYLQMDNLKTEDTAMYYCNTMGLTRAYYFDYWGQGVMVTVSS VL: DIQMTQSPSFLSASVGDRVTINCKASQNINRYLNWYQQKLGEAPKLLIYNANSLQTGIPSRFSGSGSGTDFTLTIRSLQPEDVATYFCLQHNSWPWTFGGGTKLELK    1100
AB5 (antibody, V domains shown, Hybridoma monoclonal; Same VH/VL entries as AB6; also called antibody 5; clone 5) VH: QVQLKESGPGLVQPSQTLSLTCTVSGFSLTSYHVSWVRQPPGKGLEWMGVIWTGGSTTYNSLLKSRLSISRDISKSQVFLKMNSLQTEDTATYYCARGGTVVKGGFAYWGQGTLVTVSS VL: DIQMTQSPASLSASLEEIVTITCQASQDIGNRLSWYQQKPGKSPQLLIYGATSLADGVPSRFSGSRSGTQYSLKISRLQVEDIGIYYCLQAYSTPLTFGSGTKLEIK    840

Reported MFI for AB11 (antibody, V domains shown, Hybridoma monoclonal; also called antibody 11; clone 11) VH: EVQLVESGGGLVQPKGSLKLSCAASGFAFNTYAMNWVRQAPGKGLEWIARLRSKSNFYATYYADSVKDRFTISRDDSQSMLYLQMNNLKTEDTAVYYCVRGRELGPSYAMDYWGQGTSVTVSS VL: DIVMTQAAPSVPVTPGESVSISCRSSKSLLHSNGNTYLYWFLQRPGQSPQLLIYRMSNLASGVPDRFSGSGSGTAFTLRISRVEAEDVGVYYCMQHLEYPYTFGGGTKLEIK was 1020

Reported MFI for AB10 (antibody, V domains shown, Hybridoma monoclonal; also called antibody 10; clone 10) VH: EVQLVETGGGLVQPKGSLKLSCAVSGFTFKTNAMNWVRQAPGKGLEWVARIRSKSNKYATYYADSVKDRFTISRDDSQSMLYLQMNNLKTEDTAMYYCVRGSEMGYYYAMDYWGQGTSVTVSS VL: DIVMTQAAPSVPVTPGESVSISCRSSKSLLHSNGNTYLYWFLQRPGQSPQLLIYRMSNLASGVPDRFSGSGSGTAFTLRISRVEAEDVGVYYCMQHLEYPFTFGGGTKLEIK was 1070
